# Test system: CP305
# ASSAY_INFO: qHTS profiling for inhibitors of Plasmodium falciparum proliferation (AID 504749); further: nearly all actives have a fitted effect of over 60% in size
# SETUP_CONDITIONS: P. falciparum in erythrocytes, SYBR Green DNA, 72 h; series mostly up to 28.7 µM
Records with an inconclusive call do not appear. Active and inactive are the calls of the source. The call rests on the fitted dose curve; in most records, active means well fitted inhibition curve with a large enough effect; inconclusive means small, poorly fitted or top-dose-only effect; inactive means flat fitted curve, though single readings scatter.
Valid outcomes are listed here; reply with one: 1 = active, 0 = inactive

Challenge: Status in this test for CC(C)(C)[C@]1(O)CCN2CC3c4ccccc4CCc4cccc(c43)[C@@H]2C1 (some centres not stated) ?
Response given: 0

Challenge: Short answer needed: outcome of this test for C[C@@]12C(=O)OC(=O)[C@]1(C)[C@H]1CC[C@@H]2O1 ?
Response given: 1

Challenge: What did the test return for Oc1ccc(/C=C\c2cc(O)cc(O)c2)cc1 ?
Response given: 0

Challenge: What did the test return for COc1ccc(CCNC[C@@H](O)c2ccc(O)cc2)cc1OC ?
Response given: 0

Challenge: Hello, I am checking results. What call was entered for CC(C)C[C@H]1C(=O)N2CCCC2[C@]2(O)O[C@](NC(=O)[C@@H]3C=C4c5cccc6[nH]c(Br)c(c56)C[C@H]4N(C)C3)(C(C)C)C(=O)N12 (some centres not stated) ?
Response given: 1

***
Challenge: Answer briefly: the call reported for CO[C@H]1/C=C/O[C@@]2(C)Oc3c(C)c(O)c4c(O)c(c(/C=N\N5CCN(C6CCCC6)CC5)c(O)c4c3C2=O)NC(=O)/C(C)=C\C=C\[C@H](C)[C@H](O)[C@@H](C)[C@@H](O)[C@@H](C)[C@H](OC(C)=O)[C@@H]1C in this assay.
Response given: 1

Challenge: Look up the recorded call for C[C@@H]1[C@H](O)[C@@H](C)/C=C/C=C/C=C/C=C/C=C/C=C/C=C/[C@H](O[C@@H]2O[C@H](C)[C@@H](O)[C@H](N)[C@@H]2O)C[C@@H]2O[C@](O)(C[C@@H](O)C[C@@H](O)[C@H](O)CC[C@@H](O)C[C@@H](O)CC(=O)O[C@H]1C)C[C@H](O)[C@H]2C(=O)O in this test.
Response given: 0
